target: hER-β (Homo sapiens, UniProt Q92731); construct: purchased Panvera; assay: Estrogen Receptor β Fluorescence Polarization Assay (binding of Fluormone ES2)
Sequence (Q92731 whole entry): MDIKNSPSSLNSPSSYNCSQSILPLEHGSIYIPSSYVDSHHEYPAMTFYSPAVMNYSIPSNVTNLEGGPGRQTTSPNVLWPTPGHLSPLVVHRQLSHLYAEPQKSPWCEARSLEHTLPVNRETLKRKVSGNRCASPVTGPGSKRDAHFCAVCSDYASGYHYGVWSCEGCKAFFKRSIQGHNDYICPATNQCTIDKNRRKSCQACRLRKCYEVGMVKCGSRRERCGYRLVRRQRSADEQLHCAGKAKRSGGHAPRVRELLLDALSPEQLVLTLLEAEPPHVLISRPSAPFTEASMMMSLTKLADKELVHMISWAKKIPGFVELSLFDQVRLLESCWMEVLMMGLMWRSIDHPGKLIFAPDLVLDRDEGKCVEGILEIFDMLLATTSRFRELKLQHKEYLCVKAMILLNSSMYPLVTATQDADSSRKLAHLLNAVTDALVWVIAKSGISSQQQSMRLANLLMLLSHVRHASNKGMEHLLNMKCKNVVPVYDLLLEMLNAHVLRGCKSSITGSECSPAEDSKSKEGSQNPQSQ
pIC50: −log10 of the molar value.
METRIC: pIC50

{"COMPOUND": "Oc1ccc2c(c1)OC(c1ccc(OCCN3CCCCCC3)cc1)C1=C2COc2cc(O)ccc21 (centres unmarked) [Compound 17]", "pIC50": 7.51}

(A) Oc1ccc2c(c1)OC(c1ccccc1)C1=C2COc2cc(O)ccc21 (centres unmarked) [Compound 6]
(B) Oc1ccc2c(c1)OC(c1ccc(OCCN3CCOCC3)cc1)C1=C2COc2cc(O)ccc21 (centres unmarked) [Compound 13]
(C) Oc1ccc2c(c1)OC(c1ccc(OCCN3CCCC3)cc1)C1=C2COc2cc(O)ccc21 (centres unmarked) [Compound 11]
Arrange the 3 compounds by rising pIC50, starting with the smallest. Field: ranking. Enter the labels in the order requested.
C, B, A

* * *

Biological target: human estrogen receptor α (Homo sapiens)
Construct: purchased Panvera
Sequence (P03372 1-595): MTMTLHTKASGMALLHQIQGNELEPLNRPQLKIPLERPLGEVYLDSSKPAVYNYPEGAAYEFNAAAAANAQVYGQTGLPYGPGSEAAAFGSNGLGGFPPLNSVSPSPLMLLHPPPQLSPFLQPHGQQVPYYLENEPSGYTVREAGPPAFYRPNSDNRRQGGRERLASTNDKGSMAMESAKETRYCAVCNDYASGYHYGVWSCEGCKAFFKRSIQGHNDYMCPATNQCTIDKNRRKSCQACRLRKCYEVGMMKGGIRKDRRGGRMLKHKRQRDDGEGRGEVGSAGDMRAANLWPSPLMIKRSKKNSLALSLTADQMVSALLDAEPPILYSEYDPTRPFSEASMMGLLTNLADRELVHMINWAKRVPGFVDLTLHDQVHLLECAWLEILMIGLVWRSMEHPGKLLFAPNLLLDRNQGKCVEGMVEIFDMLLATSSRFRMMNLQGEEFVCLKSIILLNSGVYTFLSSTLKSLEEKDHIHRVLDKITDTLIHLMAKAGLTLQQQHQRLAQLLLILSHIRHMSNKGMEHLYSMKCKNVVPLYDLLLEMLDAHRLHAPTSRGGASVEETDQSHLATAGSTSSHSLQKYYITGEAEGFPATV
Assay: Estrogen Receptor α Flash Plate Assay (binding of radiolabeled estrogen)
Conditions: flash plate binding, 0.5 nM radiolabeled estrogen; number in brackets = No. of determinations; NA = no detected activity at test concentration; read-out: Estrogen Receptor α in μM (No.)
METRIC: IC50 (µM)

{"COMPOUND": "COc1ccc2c(c1)O[C@@H](c1ccc(OCCN3CCCCC3)cc1)C1=C2COc2cc(OC)ccc21 (single isomer, unassigned)", "UNITS TEXT": "µM", "EXPERIMENTAL VALUE": 0.17}
{"COMPOUND": "CC(C)(C)C(=O)Oc1ccc2c(c1)OCC1=C2C(c2ccc(OCCN3CCCCC3)cc2)Oc2cc(O)ccc21 (single isomer, unassigned)", "UNITS TEXT": "µM", "EXPERIMENTAL VALUE": 0.0066}
{"COMPOUND": "COc1ccc2c(c1)OCC1=C2C(c2ccc(OCCN3CCCCC3)cc2)Oc2cc(OC(=O)C(C)(C)C)ccc21 (single isomer, unassigned)", "UNITS TEXT": "µM", "EXPERIMENTAL VALUE": 0.66}
{"COMPOUND": "c1ccc2c(c1)O[C@@H](c1ccc(OCCN3CCCCC3)cc1)C1=C2COc2ccccc21 (stereo in doubt)", "UNITS TEXT": "µM", "EXPERIMENTAL VALUE": 0.072}
{"COMPOUND": "CC(C)(C)C(=O)Oc1ccc2c(c1)OC(c1ccc(OCCN3CCCCC3)cc1)C1=C2COc2cc(OC(=O)C(C)(C)C)ccc21 (single isomer, unassigned) [Compound 24]", "UNITS TEXT": "µM", "EXPERIMENTAL VALUE": 5.95}
{"COMPOUND": "c1ccc2c(c1)OC(c1ccc(OCCN3CCCCC3)cc1)C1=C2COc2ccccc21 (single isomer, unassigned)", "UNITS TEXT": "µM", "EXPERIMENTAL VALUE": 0.16}
{"COMPOUND": "COC1Oc2cc(OC(=O)C(C)(C)C)ccc2C2=C1c1ccc(OC(=O)C(C)(C)C)cc1OC2c1ccc(OCCN2CCCCC2)cc1 (stereo not shown)", "UNITS TEXT": "µM", "EXPERIMENTAL VALUE": 0.69}
{"COMPOUND": "CN(C)c1ccc(C2Oc3cc(O)ccc3C3=C2c2ccc(O)cc2OC3)cc1 (stereo not shown)", "UNITS TEXT": "µM", "EXPERIMENTAL VALUE": 0.014}
{"COMPOUND": "CC(C)(C)C(=O)Oc1ccc2c(c1)OC(C)(c1ccc(OCCCN3CCCCC3)cc1)C1=C2COc2cc(OC(=O)C(C)(C)C)ccc21 (stereo not shown)", "UNITS TEXT": "µM", "EXPERIMENTAL VALUE": 0.62}
{"COMPOUND": "CN(C)CCOc1ccc(C2Oc3cc(O)ccc3C3=C2c2ccccc2OCC3)cc1 (single isomer, unassigned) [Compound 149]", "UNITS TEXT": "µM", "EXPERIMENTAL VALUE": 0.015}

(a) Oc1ccc2c(c1)OC(c1ccc(OCCN3CCCCC3)cc1)C1=C2CCOc2ccccc21 (single isomer, unassigned) [Compound 132]
(b) CC(C)(C)C(=O)Oc1ccc2c(c1)OC(C)(c1ccc(OCCN3CCCCC3)cc1)C1=C2COc2cc(OC(=O)C(C)(C)C)ccc21 (stereo not shown)
(c) Oc1ccc2c(c1)OC(c1ccc(OCCN3CCCCC3)cc1)C1=C2COc2cc(O)ccc21 (stereo not shown)
Given 3 compounds, produce a descending ranking by IC50. Field: ranking. Enter the labels in the order requested.
b, a, c
(b: 1.9 µM, a: 0.0048 µM, c: 0.0023 µM)
